These entries and their values trace back to patent US20250320312A1.

Collected OD450 values appear next to each entry.
# measurement-target: Peptide 1: Biotin-…-[Tyr(PC)]-acid
# Sequence (peptide, as listed by the source): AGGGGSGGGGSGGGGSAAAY
# test-name: scFv ELISA

binder | OD450 [OD450]
PcOxP_DB03_E02 (scFv, V domains shown, scFv in periplasmic extract) VH: EVQLLESGGGLVQPGGSLRLSCAASGWTFSDFYMEWVRQAPGKGLEWVAASRNKANDYTTEYADSVKGRFTISRDNSKNTLYLQMNSLRAEDTAVYYCARDYYGSSYWYFDVWGQGTLVTVSS VL: DIQMTQSPSSLSASVGDRVTITCTASESLYSQKHKVHYLAWYQQKPGKAPKLLIYGASNRYIGVPSRFSGSGSGTDFTLTISSLQPEDFATYYCAQFYYYPLTFGGGTKVEIK | 2
PcOxP_DB01_G11 (scFv, V domains shown, scFv in periplasmic extract) VH: EVQLLESGGGLVQPGGSLRLSCAASGFTFSDGYMEWVRQAPGKGLEWVAASRNKNNDYTTEYADSVKGRFTISRDNSKNTLYLQMNSLRAEDTAVYYCARDYFGSSYWYFDVWGQGTLVTVSS VL: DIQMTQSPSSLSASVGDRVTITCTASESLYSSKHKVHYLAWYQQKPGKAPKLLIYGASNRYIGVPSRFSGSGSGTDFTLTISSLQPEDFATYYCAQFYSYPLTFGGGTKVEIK | 0.99
PcOxP_DB03_C04 (scFv, V domains shown, scFv in periplasmic extract) VH: EVQLLESGGGLVQPGGSLRLSCAASGFTFSDFYMEWVRQAPGKGLEWVAASRNKANDYTTEYADSVKGRFTISRDNSKNTLYLQMNSLRAEDTAVYYCARDYYGSSYWYNDVWGQGTLVTVSS VL: DIVMTQSPDSLAVSLGERATINCTASESLYSSKHKVHYLAWYQQKPGQPPKLLIYGASNRYIGVPDRFSGSGSGTDFTLTISSLQAEDVAVYYCAQFYTYPLTFGGGTKVEIK | 2.11
PcOxP_DB02_D03 (scFv, V domains shown, scFv in periplasmic extract) VH: EVQLLESGGGLVQPGGSLRLSCAASGFTQSDFYMEWVRQAPGKGLEWVAASRNKANAYTTEYADSVKGRFTISRDNSKNTLYLQMNSLRAEDTAVYYCARDYYGYSYWYFDVWGQGTLVTVSS VL: DIVMTQSPDSLAVSLGERATINCTASESLYSSKHKVHYLAWYQQKPGQPPKLLIYGNSNRYIGVPDRFSGSGSGTDFTLTISSLQAEDVAVYYCGQFYSYPLTFGGGTKVEIK | 0.42
PcOxP_DB03_H09 (scFv, V domains shown, scFv in periplasmic extract) VH: EVQLLESGGGLVQPGGSLRLSCAASGFTFSDAYMEWVRQAPGKGLEWVAASRNKANSYTTEYADSVKGRFTISRDNSKNTLYLQMNSLRAEDTAVYYCARDYYGSSYWYFDVWGQGTLVTVSS VL: DIQMTQSPSSLSASVGDRVTITCTASESLYSSKHKVHYLAWYQQKPGKAPKLLIYGASNRYIGVPSRFSGSGSGTDFTLTISSLQPEDFATYYCAEFYSYPLTFGGGTKVEIK | 0.93
